These measurements were taken from patent US10898481B2.

- TARGET DESC: hADORA1/CHO (hA1 expressing) cells (Homo sapiens (Human), UniProt P30542)
- Sequence (P30542 whole entry): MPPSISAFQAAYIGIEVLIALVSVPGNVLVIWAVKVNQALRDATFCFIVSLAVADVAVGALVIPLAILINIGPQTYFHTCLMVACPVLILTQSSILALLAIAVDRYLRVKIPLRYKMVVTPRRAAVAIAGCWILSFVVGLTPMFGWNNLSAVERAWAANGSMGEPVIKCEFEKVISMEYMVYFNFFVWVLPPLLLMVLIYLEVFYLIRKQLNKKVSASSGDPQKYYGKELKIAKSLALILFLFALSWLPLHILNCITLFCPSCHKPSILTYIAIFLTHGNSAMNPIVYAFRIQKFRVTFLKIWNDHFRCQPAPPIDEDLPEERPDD
- ASSAY INFO: cell-based
- CONDITION DETAILS: FLIPR inhibition, 10 μM adenosine, read-out: cAMP & FLIPR IC50 (nM) hA1
VALUE TYPE: IC50 (nM)

INSERT INTO assay_data (compound, measurement_units, relation_symbol, obs_value) VALUES
  ('Cc1cnc2ccc(-c3nc(C(=O)NCC4CCCN(C)C4=O)c(N)nc3-c3ncco3)cn12 (single isomer, unassigned; isomer 2) [Example 254]', 'nM', '=', 99),
  ('Cc1cnc2ccc(-c3nc(C(=O)NC[C@@H]4CC(F)(F)CN4C)c(N)nc3-c3ncco3)cn12 [Example 161]', 'nM', '=', 34),
  ('Cc1cnc2ccc(-c3nc(CNC(=O)[C@H]4CCCN4C)c(N)nc3-c3cccc(F)c3)cn12 [Example 278]', 'nM', '=', 12),
  ('Cc1cnc2ccc(-c3nc(C(=O)NCC(C4CC4)N(C)C)c(N)nc3-c3ncco3)cn12 (single isomer, unassigned; isomer 2) [Example 269]', 'nM', '>', 10000),
  ('Cc1cnc2ccc(-c3nc(C(=O)N4CC[C@@H](N(C)C)C4)c(N)nc3-c3ccc(F)cc3)cn12 [Example 203-1]', 'nM', '=', 91),
  ('Nc1nc(-c2ncco2)c(-c2ccc(=O)n(C3CC3)c2)nc1C(=O)NCc1c(F)cccc1F [Example 38]', 'nM', '=', 61),
  ('Cc1cnc2ccc(-c3nc(C(=O)NC[C@H]4CCN(C(=O)C5CC5)C4)c(N)nc3-c3ncco3)cn12 [Cmpd. 219]', 'nM', '>', 10000);
